Target: T1, human prolactin receptor (PRLR) (human, UniProt P16471 25-622)
T1 sequence: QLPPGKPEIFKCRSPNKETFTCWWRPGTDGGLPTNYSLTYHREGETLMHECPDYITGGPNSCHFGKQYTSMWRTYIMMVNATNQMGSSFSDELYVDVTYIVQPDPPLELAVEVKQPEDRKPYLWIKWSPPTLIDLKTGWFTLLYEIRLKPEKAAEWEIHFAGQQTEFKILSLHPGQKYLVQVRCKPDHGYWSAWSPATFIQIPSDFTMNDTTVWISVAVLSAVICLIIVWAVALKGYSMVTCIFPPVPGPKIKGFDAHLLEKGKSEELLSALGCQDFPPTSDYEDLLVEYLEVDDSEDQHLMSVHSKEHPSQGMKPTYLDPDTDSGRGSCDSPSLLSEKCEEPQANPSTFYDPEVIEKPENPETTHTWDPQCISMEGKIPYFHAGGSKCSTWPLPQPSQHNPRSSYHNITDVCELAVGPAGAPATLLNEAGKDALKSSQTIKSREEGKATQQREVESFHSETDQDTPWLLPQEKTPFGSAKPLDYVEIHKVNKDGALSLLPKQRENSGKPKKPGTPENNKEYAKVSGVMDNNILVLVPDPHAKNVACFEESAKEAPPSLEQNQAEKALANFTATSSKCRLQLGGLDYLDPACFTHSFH
Assay: cell-based or functional assay
resultType: % Kill, MCF7/PRLR cells (%)
Numeric answer only, unit % assumed.

Example entries and their recorded answers appear below.
binder	numericResult
H1H6782P-mc-VC-PAB-MeNHC3-May (antibody, human IgG1, V domains shown, MeNHC3-May conjugated through mc-VC-PAB linker; attachment residues not stated) VH: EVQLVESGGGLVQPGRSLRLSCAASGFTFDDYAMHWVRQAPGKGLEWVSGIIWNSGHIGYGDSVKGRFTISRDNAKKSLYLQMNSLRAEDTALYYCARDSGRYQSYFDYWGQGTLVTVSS VL: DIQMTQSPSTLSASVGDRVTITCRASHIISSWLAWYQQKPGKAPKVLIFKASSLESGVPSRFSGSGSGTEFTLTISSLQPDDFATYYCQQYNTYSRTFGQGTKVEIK	80
H1H6953N-mc-VC-PAB-MeNHC3-May (antibody, human IgG1, V domains shown, MeNHC3-May conjugated through mc-VC-PAB linker; attachment residues not stated) VH: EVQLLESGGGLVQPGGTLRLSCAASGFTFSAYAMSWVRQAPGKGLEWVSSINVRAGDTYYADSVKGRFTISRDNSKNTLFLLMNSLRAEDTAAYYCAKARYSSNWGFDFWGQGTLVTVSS VL: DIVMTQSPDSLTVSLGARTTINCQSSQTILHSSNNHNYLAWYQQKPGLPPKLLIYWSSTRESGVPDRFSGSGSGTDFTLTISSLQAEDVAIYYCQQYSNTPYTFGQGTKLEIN	80

Kindly review the next binder as well.
Data point: H1H6765P-mc-VC-PAB-MMAE (antibody, human IgG1, V domains shown, MMAE conjugated through cleavable mc-vc-PAB linker; attachment residues not stated) VH: EVQLVESGGGVVRPGGSLRLSCVGSGFSFDDHGMNWVRQGPGKGLEWVSGFNWNGGSTNYAESVKGRFTISRDNARNSLFLQMNSLRAEDTALYYCVRGRSGWFNDAFDVWGPGTMVTVSS VL: EIVLTQSPGTLSLSPGERATLSCRASQTINSNYLAWYRQKPGQTPRLLIYGTSSRATGIPDRFSGSGSGTDFSLTISRLEPEDFAVFYCQQYAGLPTFGPGTKVDIK ; % Kill, MCF7/PRLR cells = 90
